testedTarget: PD-L1 ligand (analyte of the Octet affinity measurement) (UniProt Q9NZQ7 19-238, limits assumed)
Sequence (Q9NZQ7 19-238 limits assumed): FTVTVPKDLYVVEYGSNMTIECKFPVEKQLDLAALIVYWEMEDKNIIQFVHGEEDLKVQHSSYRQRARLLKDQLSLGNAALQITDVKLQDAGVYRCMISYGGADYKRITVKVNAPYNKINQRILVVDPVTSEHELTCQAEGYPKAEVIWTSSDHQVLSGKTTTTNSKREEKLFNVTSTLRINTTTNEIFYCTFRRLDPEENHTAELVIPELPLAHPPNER
methodDescription: BLI (Octet RED 96), antibody captured on anti-human IgG sensor, PD-L1 in solution, 1:1 fit
endpointName: koff (s⁻¹)
A number alone suffices; assume s⁻¹.

Lookup: State the recorded koff for this entry: chimeric anti-PD-L1 antibody 111H2 (antibody, V domains shown, also called chimeric anti-PD-L1 111H2 antibody) VH: QEQLVESGGGLVQPGGTLKLSCKGSGFDLSSNAMCWVRQAPGKGLEWIGCIVYGNCYYASWVNGRFTISSDNAQSSVDLQLNSLTAADTATYFCARDPAGSSVYTGGFNIWGPGTLVTVSS VL: AIDMTQTPSPVSAAVGDTVTINCQASENIYSFLAWYQQKPGHSPKPLIYFASKLASGVPSRFKGSGSGTQFTLTISDVQCDDAATYYCQQTVSYKNADTAFGGGTKVVVVR
Found: 0.000197

Data provenance is patent US20170355770A1.
